test: NCI Yeast Anticancer Drug Screen. Data for the rad50 strain (AID 155);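 note: 0% = growth of vehicle-only cultures of the same strain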; conditions: S. cerevisiae rad50 strain growth inhibition; at 50.0 µM; active compounds read high
This is part of a sample that, as a whole, favours compounds with a hit. Of some 79,000 tested, about 15% had one in any assay. The source made the active and inactive calls. Cut-off read from the data, not from the text of the source: active = growth inhibition above about 70%; inactive = the rest.
growth inhibition values, listed per item
outcome measure: growth inhibition

{"compound": "C=C(CC(=O)OC)C(=O)OC", "value": "12.3% (inactive)"}
{"compound": "CC(=O)Nc1ccc(S(=O)(=O)N/N=C/c2ccco2)cc1", "value": "23.1% (inactive)"}
{"compound": "C=CCCCCCCCCC(=O)NCCCN1CCOCC1", "value": "77.5% (active)"}
{"compound": "COc1ccc(Nc2nc(N)nc3c2ncn3C2OC(CO)C(O)C2O)cc1 (stereo unspecified)", "value": "-9.6% (inactive)"}
{"compound": "CCC(=O)OCC(OC(=O)CC)c1ccccc1 (stereo unspecified)", "value": "3.75% (inactive)"}
{"compound": "CN(C)CCNc1ccc(NCCN(C)C)c2c1C(=O)c1ncsc1C2=O", "value": "-8.15% (inactive)"}

====

experiment: NCI Yeast Anticancer Drug Screen. Data for the rad50 strain (AID 155);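 note: 0% = growth of vehicle-only cultures of the same strain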; conditions: S. cerevisiae rad50 strain growth inhibition; at 50.0 µM; active compounds read high
Compounds without any hit were thinned out: in the full panel of roughly 79,000, 15% have a hit.
outcome measure: growth inhibition (%)

{"compound": "CC(=O)c1cc2c(Br)cccc2oc1=O", "outcome measure": "growth inhibition", "value": -38}
{"compound": "COc1cc(C(=O)O)ccc1OS(=O)(=O)O", "outcome measure": "growth inhibition", "value": -17.4}
{"compound": "C/C(=N/Nc1ccc([N+](=O)[O-])cc1[N+](=O)[O-])c1ccccc1", "outcome measure": "growth inhibition", "value": -4.25}
{"compound": "CNC1(C(N)=O)CCN(Cc2ccccc2)CC1", "outcome measure": "growth inhibition", "value": -14.7}
{"compound": "COc1ccc(N2C(=O)C3c4[nH]c5ccccc5c4C4CC(C)(C)CC(C)(C)C4C3C2=O)cc1 (configuration not stated)", "outcome measure": "growth inhibition", "value": 35.9}
{"compound": "CC1CCC2(C)CCC3(C)C(=CCC4C5(C)CCC(O)C(C)(C)C5CCC43C)C2C1C (configuration not stated) (tested in a mixture with another compound)", "outcome measure": "growth inhibition", "value": 23.8}
{"compound": "COC(=O)CC(C(C(=O)OC)C(=O)OC)N1C(=O)OCC1c1ccccc1 (configuration not stated)", "outcome measure": "growth inhibition", "value": -16.6}
{"compound": "CCCCCNN", "outcome measure": "growth inhibition", "value": 0.95}
{"compound": "CCOc1ccc(N2N=C(C)CCC2=O)cc1", "outcome measure": "growth inhibition", "value": 6.2}
{"compound": "CCc1ncc(C)[nH]1", "outcome measure": "growth inhibition", "value": 0.55}
{"compound": "CC1=C(C)CC2C(=O)C=CC(=O)C2C1 (configuration not stated)", "outcome measure": "growth inhibition", "value": 8.9}
{"compound": "CCCOC(=O)C(CC)CC(C)C (configuration not stated)", "outcome measure": "growth inhibition", "value": -4.95}

====

Assay: NCI Yeast Anticancer Drug Screen. Data for the rad50 strain (AID 155);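 note: 0% = growth of vehicle-only cultures of the same strain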
Conditions: S. cerevisiae rad50 strain growth inhibition; at 50.0 µM; active compounds read high
Experimental: Growth inhibition of yeast strains with defined genetic alterations is measured as a screen for potential anti-cancer activity. Selected strains with alterations in DNA damage repair or cell cycle control were exposed to compounds and growth inhibition was measured relative to vehicle treated controls. The strain used in this assay is rad50
The panel holds about 79,000 compounds, 15% with a hit somewhere; the sample as a whole holds those more often.
Examples of compounds with documented growth inhibition follow.

{"compound": "Cn1cnc([N+](=O)[O-])c1SC1=NCCS1", "growth inhibition [%]": 7.8}
{"compound": "O=C1OCc2cccc3c2-c2c1cccc2C(=O)OC3", "growth inhibition [%]": -3}
{"compound": "O=C1NC2C1C1c3ccccc3C2C12CC2 (stereo not drawn)", "growth inhibition [%]": -11.1}
{"compound": "CC(=O)c1ccccc1NS(=O)(=O)c1ccc2nc(C)n(NS(=O)(=O)c3ccccc3C(C)=O)c(=O)c2c1", "growth inhibition [%]": 43.5}
{"compound": "CCCCCCCN1C=CCC(S(=O)(=O)N2CCOCC2)=C1", "growth inhibition [%]": -15.7}
{"compound": "CC1(C)C=C(O)C=C(O)C1", "growth inhibition [%]": 14.2}
{"compound": "Oc1ccc2ccccc2c1/C=N/N=C/c1c(O)ccc2ccccc12", "growth inhibition [%]": 31.4}
{"compound": "C/C=C/c1ccc(OCC)c(OC)c1", "growth inhibition [%]": 24.4}
{"compound": "CC(SCCNC(N)=O)C(N)=O (stereo not drawn)", "growth inhibition [%]": -16.1}
{"compound": "CSc1nc2nc(C)[nH]c2c(=O)[nH]1", "growth inhibition [%]": 9.8}
{"compound": "N#CCCCCCCn1cnc2c(=S)nc[nH]c21", "growth inhibition [%]": 4.9}
{"compound": "COc1cc([N+](=O)[O-])c2nccc(C)c2c1", "growth inhibition [%]": 13.1}
{"compound": "CC(N(N=O)c1cccc(Cl)c1)S(=O)(=O)O (stereo not drawn)", "growth inhibition [%]": 7.25}

====

growth inhibition values, listed per item
assay: NCI Yeast Anticancer Drug Screen. Data for the mlh1 rad18 strain (AID 175); settings: S. cerevisiae mlh1 rad18 strain growth inhibition; at 50.0 µM; active compounds read high
This is part of a sample that, as a whole, favours compounds with a hit. Of some 79,000 tested, about 15% had one in any assay.

{"compound": "O=C(/C=C\\c1ccccc1)C(C(=O)/C=C/c1ccccc1)C(=O)c1ccccc1 (centres undefined)", "growth inhibition [%]": 32.8}
{"compound": "Cc1cccc2c(/C=C/c3ccc(N(C)C)cc3)ccnc12", "growth inhibition [%]": -11.4}
{"compound": "CCCCCC(=O)OCCCCCO", "growth inhibition [%]": -4.7}
{"compound": "O=C1c2ccccc2C(=O)c2c1ccc1c2N=C(c2ccc(F)cc2)CC(c2ccc(Cl)c(Cl)c2)N1 (centres undefined)", "growth inhibition [%]": 43.6}
{"compound": "CCc1n[nH]c(=O)n1N1C(=O)C2CCCCC2C1=O (centres undefined)", "growth inhibition [%]": -25.9}
{"compound": "N#C/C(=C\\c1cccs1)C(=O)c1ccco1", "growth inhibition [%]": -5.85}
{"compound": "N#CCCN(N)S(=O)(=O)c1ccccc1", "growth inhibition [%]": -0.2}
{"compound": "Cc1ccccc1N=C(N)Nc1ccccc1C", "growth inhibition [%]": -52.4}
{"compound": "NS(=O)(=O)c1ccc(NC(=S)/N=C/c2c(O)c3ccccc3oc2=O)cc1", "growth inhibition [%]": 12.6}
{"compound": "COC(=O)C(Cc1nc2ccccc2[nH]c1=O)C(NO)C(=O)Nc1c(Cl)cc([N+](=O)[O-])cc1Cl (centres undefined)", "growth inhibition [%]": -1.75}
{"compound": "CC1C/C=C2\\CSC(NC(=O)/C3=C\\N(C/C=C/C=C/C(O)CC(O)CC(=O)N3)C2=O)C(=O)O1 (centres undefined)", "growth inhibition [%]": 18.2}
{"compound": "Cc1ccc(NC(=O)CCC(=O)C2Cc3ccccc3C2=O)cc1C (centres undefined)", "growth inhibition [%]": 3.85}
{"compound": "CC(=O)Nc1ccc(S(=O)(=O)N=S(c2ccccc2)c2ccccc2)cc1", "growth inhibition [%]": -0.25}
{"compound": "CN(C)c1ccc(C=C2c3ccccc3-c3ccccc32)cc1", "growth inhibition [%]": 9.1}
{"compound": "CCOC/C(=N\\NC(N)=O)c1ccccc1", "growth inhibition [%]": -20.3}
{"compound": "NC(=O)N/N=C(/Cl)C(=O)NNC(N)=O", "growth inhibition [%]": -27.1}
{"compound": "O=C(O)C(=Cc1ccc(Br)cc1)C(=O)O", "growth inhibition [%]": 31.9}
{"compound": "CSc1nc(-c2ccccc2)c2c(n1)-c1ccccc1CC2", "growth inhibition [%]": -2.35}
{"compound": "CCCCCCCCCCCC(=O)NC(=S)Nc1ccc(C)c(C)c1", "growth inhibition [%]": 36.9}
{"compound": "O=C(NCCCCCCNC(=O)C1CCCNC1)C1CCCNC1 (centres undefined)", "growth inhibition [%]": 12.8}
{"compound": "ClCC1OC1CCl (centres undefined)", "growth inhibition [%]": 1.95}
{"compound": "Nc1ccc(C(=O)N/N=C/c2ccc(Cl)cc2Cl)cc1", "growth inhibition [%]": -5.75}
{"compound": "CCOc1c(N=Nc2ccc(Cl)cc2)c(C)nn1C(N)=S", "growth inhibition [%]": 44.5}
{"compound": "O=C(COc1ccc(Cl)c(Cl)c1)Nc1ccc(C(=O)CCl)cc1", "growth inhibition [%]": 9.3}
